Reported values of kon for individual entries
Target: T1, sIL-6R (soluble IL-6 receptor; SBH Sciences) (human, UniProt P08887 20-365)
T1 construct: also called human IL-6R
T1 sequence: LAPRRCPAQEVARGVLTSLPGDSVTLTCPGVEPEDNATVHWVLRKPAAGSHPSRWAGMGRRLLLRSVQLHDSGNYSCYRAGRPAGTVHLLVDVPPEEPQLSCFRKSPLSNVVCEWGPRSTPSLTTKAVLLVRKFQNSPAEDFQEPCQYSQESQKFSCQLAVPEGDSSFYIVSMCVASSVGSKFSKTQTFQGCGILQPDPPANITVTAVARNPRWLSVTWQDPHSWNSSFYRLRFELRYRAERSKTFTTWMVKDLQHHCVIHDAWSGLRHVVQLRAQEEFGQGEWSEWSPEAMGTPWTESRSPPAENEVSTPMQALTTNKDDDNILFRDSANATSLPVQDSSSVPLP
Experiment: SPR (BIAcore 3000), antibody on chip, sIL-6R analyte, pH 7.4
# number only, unit M⁻¹ s⁻¹ dropped from output

Worked examples follow.
Tocilizumab (antibody, human IgG1, kappa, V domains shown, also called 25; 25(control)) VH: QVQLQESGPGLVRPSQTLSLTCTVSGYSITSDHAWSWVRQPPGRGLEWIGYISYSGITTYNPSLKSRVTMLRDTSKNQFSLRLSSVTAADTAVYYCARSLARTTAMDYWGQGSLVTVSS VL: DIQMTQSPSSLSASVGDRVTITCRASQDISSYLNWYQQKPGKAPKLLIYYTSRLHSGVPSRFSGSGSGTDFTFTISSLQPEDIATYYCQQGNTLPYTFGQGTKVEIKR = 108000
237# (antibody, human IgG1, kappa, V domains shown, also called Sample # 237) VH: QVQLQESGPGLVRPSQTLSLTCTVSGYSITSDHAWSWVRQPPGRGLEWIGYISYSGMTTYNPSLKSRVTMLRDTSKNQFSLRLSSVTAADTAVYYCARCLARTTAMDYWGQGSLVTVSS VL: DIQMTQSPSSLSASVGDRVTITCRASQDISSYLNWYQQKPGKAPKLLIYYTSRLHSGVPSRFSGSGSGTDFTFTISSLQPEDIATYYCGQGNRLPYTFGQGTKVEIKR = 166000

Now look at this entry.
Look at this binder and give its reported kon. 209# (antibody, human IgG1, kappa, V domains shown, also called Sample # 209) VH: QVQLQESGPGLVRPSQTLSLTCTVSGYSITSDHAWSWVRQPPGRGLEWIGFISYSGMTTYNPSLKSRVTMLRDTSKNQFSLRLSSVTAADTAVYYCARSLARITAIDFWGQGSLVTVSS VL: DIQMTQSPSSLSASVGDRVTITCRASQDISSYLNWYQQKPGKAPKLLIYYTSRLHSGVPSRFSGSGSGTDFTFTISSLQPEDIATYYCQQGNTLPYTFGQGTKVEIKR
204000
